Target: 11b-HSD1 (Mus musculus, UniProt P50172)
Construct: endogenous in cells
Sequence (P50172 whole entry): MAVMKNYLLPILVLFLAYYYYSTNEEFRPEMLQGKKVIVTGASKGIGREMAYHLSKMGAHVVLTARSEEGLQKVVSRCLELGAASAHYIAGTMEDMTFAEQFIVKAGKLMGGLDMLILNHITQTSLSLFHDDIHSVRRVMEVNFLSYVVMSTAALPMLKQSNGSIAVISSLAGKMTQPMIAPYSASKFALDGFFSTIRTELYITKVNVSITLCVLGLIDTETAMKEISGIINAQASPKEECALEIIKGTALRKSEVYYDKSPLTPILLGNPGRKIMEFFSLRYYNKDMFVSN
Assay: Cellular assay, 11b-HSD1 activity in differentiated 3T3-L1 cells
Settings: 4 hour pre-incubation, pIC50 scored 1-3, read-out: [C2] HSD1 cellular 3T3-L1 Score
Quantity Kind: IC50

Solved cases (5 shown):
Compound	IC50
CC(C)(C(=O)NC1C2CC3CC(C2)CC1C3)c1cccc(O)c1 (stereo not drawn)	< 1000 nM
O=C(NC1CC2CCC1C2)C1(c2ccccc2)CC1 (stereo not drawn)	1000 to 10000 nM
CC(C)(C(=O)NC1C2CC3CC(C2)CC1C3)c1ccc(F)cc1F (stereo not drawn)	< 1000 nM
CC(C)(C(=O)NC1C2CC3CC(C2)CC1C3)c1cccc(C(F)(F)F)c1 (stereo not drawn)	< 1000 nM
CC(C)(C(=O)NC1C2CC3CC(C2)CC1C3)c1cccc(F)c1 (stereo not drawn)	< 1000 nM

Report IC50 for every entry below.
1. O=C(NCC12CC3CC(CC(C3)C1)C2)C1(c2ccccc2)CCCC1
2. CC(C)(C(=O)NC1C2CC3CC(C2)CC1C3)c1cccc(/C=C/C(=O)OCc2ccccc2)c1 (stereo not drawn)
3. CC1CCC(C(=O)NC2C3CC4CC(C3)CC2C4)c2ccccc21 (stereo not drawn)
4. O=C(O)CCc1cccc2c1CCCC2C(=O)N[C@H]1[C@@H]2CC3C[C@H]1C[C@](F)(C3)C2 (stereo partly drawn)

Given back:
["1000 to 10000 nM", "< 1000 nM", "< 1000 nM", "< 1000 nM"]

----------
Quantity Kind: melting point

Report melting point for every entry below.
1. COc1cccc(C(C)(C)C(=O)N[C@@H]2[C@@H]3CC4C[C@H]2C[C@](O)(C4)C3)c1
2. Cc1cccc(C(C)(C)C(=O)N[C@H]2[C@@H]3CC4C[C@H]2C[C@](F)(C4)C3)c1
3. O=C(O)COc1cccc2c1CCN(C(=O)NC1C3CC4CC(C3)CC1C4)C2 (stereo not shown)
4. O=C(N[C@H]1[C@@H]2CC3C[C@H]1C[C@](O)(C3)C2)N1CCCc2ccccc21
5. COc1cccc(C(C)(C)C(=O)N[C@@H]2[C@@H]3CC4C[C@H]2C[C@](F)(C4)C3)c1
6. O=C(N[C@@H]1[C@@H]2CC3C[C@H]1C[C@](O)(C3)C2)N1CCCc2ccccc21
7. O=C(NC1C2CC3CC(C2)CC1C3)N1CCc2ccccc2C1 (stereo not shown)

Given back:
1: 165 to 167 °C; 2: 115 to 117 °C; 3: 215 to 220 °C; 4: 170 to 172 °C; 5: 110 to 112 °C; 6: 185 to 188 °C; 7: 145 to 147 °C

----------
Below are compounds with their IC50 as measured on 11b-HSD1 (Homo sapiens, UniProt P28845).
Sequence (P28845 whole entry): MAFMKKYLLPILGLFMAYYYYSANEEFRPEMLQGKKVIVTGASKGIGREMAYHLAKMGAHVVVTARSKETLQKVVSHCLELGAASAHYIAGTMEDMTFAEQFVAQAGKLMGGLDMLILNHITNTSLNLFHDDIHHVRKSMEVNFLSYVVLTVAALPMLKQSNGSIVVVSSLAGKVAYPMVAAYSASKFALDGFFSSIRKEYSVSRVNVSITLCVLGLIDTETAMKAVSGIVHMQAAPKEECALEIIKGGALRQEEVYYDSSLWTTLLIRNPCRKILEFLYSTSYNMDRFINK

Compound	Measured On	Quantity Kind	Reported Value
O=C(O)CCc1cccc2c1CCCC2C(=O)N[C@H]1[C@@H]2CC3C[C@H]1C[C@](F)(C3)C2 (some centres unmarked)	11b-HSD1 (Homo sapiens, UniProt P28845)	IC50	< 1 µM
CCCc1cccc(C(C)(C)C(=O)NC2C3CC4CC(C3)CC2C4)c1 (centres unmarked)	11b-HSD1 (Homo sapiens, UniProt P28845)	IC50	< 1 µM
CC1=C(C(=O)NC2C3CC4CC(C3)CC2C4)Cc2ccccc21 (centres unmarked)	11b-HSD1 (Homo sapiens, UniProt P28845)	IC50	< 1 µM
CC(C)(C(=O)NC1C2CCCC1CCC2)c1ccccc1 (centres unmarked)	11b-HSD1 (Homo sapiens, UniProt P28845)	IC50	> 10 µM

For this compound ( COc1ccc(C(C)(C)C(=O)NC2C3CC4CC(C3)CC2C4)cc1OC (centres unmarked) ), measured IC50 is > 10 µM

----------
Target: 11b-HSD1 (Mus musculus)
Construct: endogenous in cells
Assay: Cellular assay, 11b-HSD1 activity in differentiated 3T3-L1 cells
Conditions: 4 hour pre-incubation, pIC50 scored 1-3, read-out: [C2] HSD1 cellular 3T3-L1 Score
Procedure: The effects on 11b-HSD1 activity was measured in differentiated 3T3-L1 cells and rat hepatocytes. […] Following a 4 hour pre-incubation with test compound, 0.5 μCi ^3H-cortisone or dehydrocorticosterone, was added to the cultures. One hour later, the medium was extracted on Extrelut^3-columns with 15 ml diethyl ether and the extract was analysed by HPLC as described above. […]
Hi there, I'd appreciate the recorded IC50 for every entry that follows.

Compound	IC50
COc1ccc2c(c1)C(C(=O)NC1C3CC4CC(C3)CC1C4)CCC2 (stereo not drawn) [Compound 203]	< 1000 nM
CNc1cccc(C(C)(C)C(=O)NC2C3CC4CC(C3)CC2C4)c1 (stereo not drawn) [Compound 77]	< 1000 nM
O=C(NC12CC3CC(CC(C3)C1)C2)C1(c2ccccc2)CCC1 [Compound 16]	1000 to 10000 nM
O=C(NC1CC2CCC1C2)C1(c2ccccc2)CCCC1 (stereo not drawn) [Compound 22]	1000 to 10000 nM
CC(=CC(=O)NC1C2CC3CC(C2)CC1C3)c1ccccc1 (stereo not drawn) [Compound 153]	< 1000 nM

Report IC50 for every entry below.
1. O=C(NC1C2CC3CC(C2)CC1C3)C1(c2ccncc2)CCCC1 (stereo not drawn) [Compound 127]
2. CC(C)(C(=O)NC1C2CC3CC(C2)CC1C3)c1cccc(OCC(=O)O)c1 (stereo not drawn) [Compound 6]

Given back:
< 1000 nM
< 1000 nM

Report IC50 for every entry below.
1. COc1cccc2c1OCC=C2C(=O)NC1C2CC3CC(C2)CC1C3 (stereo not drawn) [Compound 171]
2. O=C(NC1C2CC3CC(C2)CC1C3)C1CCc2ccccc21 (stereo not drawn) [Compound 197]

Given back:
1: < 1000 nM; 2: < 1000 nM

Report IC50 for every entry below.
1. CC(C)(C(=O)NC1C2CC3CC(C2)CC1C3)c1ccc(OCC(=O)O)cc1 (stereo not drawn) [Compound 72]
2. CC(C)(C(=O)NC1C2CC3CC(C2)CC1C3)c1cccc(CCC(=O)O)c1 (stereo not drawn) [Compound 196]
3. CN(C)CCCOc1cccc(C(C)(C)C(=O)NC2C3CC4CC(C3)CC2C4)c1 (stereo not drawn) [Compound 92]

Given back:
< 1000 nM
< 1000 nM
< 1000 nM

All values here come from patent US7968601B2.
